- System: Danio rerio larvae (5 dpf)
- protocol.details: difference in activity during first hour vs DMSO (percentage points); higher = more activity than DMSO
- condition.info: 10 µM; exposure time 6 h
Counter-ions that a name gives are not always drawn.
Lab note: anything with difference in activity during first hour at or over 2 counts as YES; the rest go in NO.

{"columns": ["compound", "target.or.system", "category.label"],
 "data": [
  ["O=C1CCc2ccc(OCCCCN3CCN(c4cccc(Cl)c4Cl)CC3)cc2N1", "Danio rerio larvae (5 dpf)", "YES"],
  ["CC1=C(/C=C/C(C)=C\\C=C\\C(C)=C\\C(=O)O)C(C)(C)CCC1 [9-cis-Retinoic Acid]", "Danio rerio larvae (5 dpf)", "YES"],
  ["Cc1ccsc1C(=CCCN1CCC[C@@H](C(=O)O)C1)c1sccc1C [Tiagabine (hydrochloride)]", "Danio rerio larvae (5 dpf)", "YES"],
  ["OC[C@H]1O[C@@H](n2cnc3c2N=CNC[C@H]3O)C[C@@H]1O", "Danio rerio larvae (5 dpf)", "YES"],
  ["Nc1nc(-n2cc(C(=O)O)c(=O)c3cc(F)c(N4CC(O)C4)c(Cl)c32)c(F)cc1F", "Danio rerio larvae (5 dpf)", "NO"],
  ["FC(F)OC(Cl)C(F)(F)F (stereo not drawn)", "Danio rerio larvae (5 dpf)", "NO"],
  ["CC1OC2(CS1)CN1CCC2CC1 (stereo not drawn) [Cevimeline (hydrochloride)]", "Danio rerio larvae (5 dpf)", "YES"],
  ["Cn1nnc2c(C(N)=O)ncn2c1=O [Temozolomide]", "Danio rerio larvae (5 dpf)", "NO"],
  ["CCOC(=O)[C@H](CCc1ccccc1)N[C@@H](C)C(=O)N1Cc2ccccc2C[C@H]1C(=O)O [Quinapril (hydrochloride)]", "Danio rerio larvae (5 dpf)", "YES"],
  ["CC(=O)NCCCS(=O)(=O)O [Acamprosate (calcium salt)]", "Danio rerio larvae (5 dpf)", "NO"],
  ["NS(=O)(=O)c1cc2c(cc1C(F)(F)F)NCNS2(=O)=O [Hydroflumethiazide]", "Danio rerio larvae (5 dpf)", "NO"],
  ["C[N+]1(C)[C@@H]2C[C@@H](OC(=O)C(O)(c3cccs3)c3cccs3)C[C@H]1[C@@H]1O[C@@H]12 [Tiotropium (bromide)]", "Danio rerio larvae (5 dpf)", "NO"],
  ["Cc1c(O)c(=O)ccn1C", "Danio rerio larvae (5 dpf)", "YES"],
  ["O=C1CCCC(=O)C1C(=O)c1ccc(C(F)(F)F)cc1[N+](=O)[O-]", "Danio rerio larvae (5 dpf)", "YES"],
  ["CC1=NN(c2ccc(C)c(C)c2)C(=O)/C1=N\\Nc1cccc(-c2cccc(C(=O)O)c2)c1O", "Danio rerio larvae (5 dpf)", "YES"],
  ["O=C(C1CCCCC1)N1CC(=O)N2CCc3ccccc3C2C1 (stereo not drawn)", "Danio rerio larvae (5 dpf)", "NO"],
  ["CC(=O)CCCCn1c(=O)c2c(ncn2C)n(C)c1=O", "Danio rerio larvae (5 dpf)", "YES"]
]}

---

Reported values of difference in excitability for individual entries
- Test system: Danio rerio larvae (5 dpf)
- protocol.details: difference in excitability vs DMSO (percentage points); higher = more excitable than DMSO
- condition.info: 10 µM; exposure time 6 h
Counter-ions that a name gives are not always drawn.

{"columns": ["compound", "target.or.system", "difference in excitability"],
 "data": [
  ["Cc1c(O)c(=O)ccn1C [Deferiprone]", "Danio rerio larvae (5 dpf)", 4.23],
  ["CNC(=O)c1cc(Oc2ccc(NC(=O)Nc3ccc(Cl)c(C(F)(F)F)c3)cc2)ccn1 [Sorafenib]", "Danio rerio larvae (5 dpf)", 19.5],
  ["Brc1c(NC2=NCCN2)ccc2nccnc12 [Brimonidine (tartrate)]", "Danio rerio larvae (5 dpf)", -0.928],
  ["CCCC1O[C@@H]2C[C@H]3[C@@H]4CCC5=CC(=O)C=C[C@]5(C)[C@H]4[C@@H](O)C[C@]3(C)[C@]2(C(=O)CO)O1 (stereo partly drawn) [Budesonide]", "Danio rerio larvae (5 dpf)", 4.9],
  ["CN(C)CCC=C1c2ccccc2COc2ccccc21 [Doxepin (hydrochloride)]", "Danio rerio larvae (5 dpf)", 9.9],
  ["CC(C)C(=O)Oc1ccc(CO)cc1[C@H](CCN(C(C)C)C(C)C)c1ccccc1 [Fesoterodine (fumarate)]", "Danio rerio larvae (5 dpf)", 4.21],
  ["O=C(O)c1ccc(-n2nc(-c3ccccc3O)nc2-c2ccccc2O)cc1 [Deferasirox]", "Danio rerio larvae (5 dpf)", 1.98],
  ["CNCC(O)c1ccc(OC(=O)C(C)(C)C)c(OC(=O)C(C)(C)C)c1 (stereo not drawn) [Dipivefrin (hydrochloride)]", "Danio rerio larvae (5 dpf)", -3.61]
]}

---

- System: Danio rerio larvae (5 dpf)
- protocol.details: difference in habituation to acoustic stimuli vs DMSO (percentage points); higher = more habituation than DMSO
- condition.info: 10 µM; exposure time 6 h
Structures can show the parent of a compound that is named as a salt.
Quick rule: difference in habituation to acoustic stimuli of at least -3 means true, below that means false.

{"columns": ["compound", "category.label"],
 "data": [
  ["NCCc1ccc(O)c(O)c1 [Dopamine (hydrochloride)]", "true"],
  ["CN/C(=N\\CCSCc1nc[nH]c1C)NC#N", "true"],
  ["C[C@H](Nc1ncnc2nc[nH]c12)c1cc2cccc(Cl)c2c(=O)n1-c1ccccc1", "true"],
  ["O=C1CN(/N=C/c2ccc([N+](=O)[O-])o2)C(=O)N1", "true"],
  ["Clc1ccc(CO/N=C(\\Cn2ccnc2)c2ccc(Cl)cc2Cl)c(Cl)c1 [Oxiconazole (nitrate)]", "false"],
  ["COC(=O)[C@@H]1CC2=CC(=O)CC[C@]2(C)[C@@]23O[C@@H]2C[C@@]2(C)[C@@H](CC[C@@]24CCC(=O)O4)[C@H]13", "true"],
  ["CC[C@]1(O)C[C@H]2CN(CCc3c([nH]c4ccccc34)[C@@](C(=O)OC)(c3cc4c(cc3OC)N(C=O)[C@H]3[C@@](O)(C(=O)OC)[C@H](OC(C)=O)[C@]5(CC)C=CCN6CC[C@]43[C@@H]65)C2)C1 [Vincristine (sulfate)]", "true"],
  ["CC(C)OC(=O)[C@H](C)N[P@](=O)(OC[C@H]1O[C@@H](n2ccc(=O)[nH]c2=O)[C@](C)(F)[C@@H]1O)Oc1ccccc1", "true"],
  ["CC1(C)O[C@@H]2C[C@H]3[C@@H]4CCC5=CC(=O)C=C[C@]5(C)[C@H]4[C@@H](O)C[C@]3(C)[C@]2(C(=O)CO)O1 [Desonide]", "true"],
  ["CC(O)(P(=O)(O)O)P(=O)(O)O [Etidronate (sodium salt)]", "true"],
  ["CC(C)(S)[C@@H](N)C(=O)O", "true"],
  ["COC(=O)[C@H](c1ccccc1Cl)N1CCc2sccc2C1 (racemic) [(±)-Clopidogrel (hydrochloride)]", "false"],
  ["Cc1ccc(=O)n(-c2ccccc2)c1", "true"],
  ["N[C@@H](CC(=O)N1CCn2c(nnc2C(F)(F)F)C1)Cc1cc(F)c(F)cc1F [(-)-Sitagliptin (phosphate)]", "false"],
  ["COc1cc(Cc2cnc(N)nc2N)cc(OC)c1OC", "false"],
  ["OC(CCN1CCCCC1)(c1ccccc1)C1CC2C=CC1C2 (stereo unspecified) [Biperiden (hydrochloride)]", "false"]
]}

---

The reader will find reported difference values listed item by item below.
- Test system: Danio rerio larvae (5 dpf)
- protocol.details: difference in combined optomotor response to red, green and blue moving lines vs DMSO (percentage points); higher = stronger optomotor response than DMSO
- condition.info: 10 µM; exposure time 6 h
Where a name gives a salt, the structure may show the parent alone.
measured.quantity: difference

{"columns": ["compound", "measured.quantity", "observed.result"],
 "data": [
  ["CCOc1cc(CC(=O)N[C@@H](CC(C)C)c2ccccc2N2CCCCC2)ccc1C(=O)O [Repaglinide]", "difference", 1.85],
  ["CCOC(=O)[C@H](CCc1ccccc1)N[C@@H](C)C(=O)N1CCC[C@H]1C(=O)O [Enalapril (maleate)]", "difference", 7.06],
  ["CC1=C(/C=C/C(C)=C\\C=C\\C(C)=C\\C(=O)O)C(C)(C)CCC1 [9-cis-Retinoic Acid]", "difference", 2.9],
  ["Cc1nc2c([nH]1)-c1ccccc1N(C(=O)c1ccc(NC(=O)c3ccccc3-c3ccccc3)cc1)CC2 [Conivaptan (hydrochloride)]", "difference", -0.877]
]}

---

- System: Danio rerio larvae (5 dpf)
- protocol.details: difference in excitability vs DMSO (percentage points); higher = more excitable than DMSO
- condition.info: 10 µM; exposure time 6 h
Counter-ions that a name gives are not always drawn.
measured.quantity: difference in excitability

{"columns": ["compound", "measured.quantity", "observed.result"],
 "data": [
  ["CC[C@H](C)C[C@H](C)CCCCCCCCC(=O)N[C@H]1C[C@@H](O)[C@@H](NCCN)NC(=O)[C@@H]2[C@@H](O)CCN2C(=O)[C@H]([C@H](O)CCN)NC(=O)[C@H]([C@H](O)[C@@H](O)c2ccc(O)cc2)NC(=O)[C@@H]2C[C@@H](O)CN2C(=O)[C@H]([C@@H](C)O)NC1=O [Caspofungin (acetate)]", "difference in excitability", 12.4],
  ["CNCc1ccc(-c2[nH]c3cc(F)cc4c3c2CCNC4=O)cc1", "difference in excitability", 15.9],
  ["OC(c1cc(C(F)(F)F)nc2c(C(F)(F)F)cccc12)C1CCCCN1 (stereo not given) [Mefloquine (hydrochloride)]", "difference in excitability", 20.8],
  ["CN(C)CCCN1c2ccccc2CCc2ccc(Cl)cc21 [Clomipramine (hydrochloride)]", "difference in excitability", 0.766],
  ["CCCCC[C@H](O)/C=C/[C@H]1[C@H](O)CC(=O)[C@@H]1CCCCCCC(=O)O [Prostaglandin E1]", "difference in excitability", 15.5],
  ["NCC(=O)CCC(=O)O [5-Aminolevulinic Acid (hydrochloride)]", "difference in excitability", 11.2],
  ["COc1cc(Cc2cnc(N)nc2N)cc(OC)c1OC", "difference in excitability", 2.02],
  ["CC[C@H]1OC(=O)[C@H](C)[C@@H](O[C@H]2C[C@@](C)(OC)[C@@H](O)[C@H](C)O2)[C@H](C)[C@@H](O[C@@H]2O[C@H](C)C[C@H](N(C)C)[C@H]2O)[C@](C)(O)C[C@@H](C)C(=O)[C@H](C)[C@@H](O)[C@]1(C)O", "difference in excitability", 4.99],
  ["NC[C@H]1O[C@H](O[C@H]2[C@H](O)[C@@H](O[C@H]3O[C@H](CO)[C@@H](O)[C@H](N)[C@H]3O)[C@H](N)C[C@@H]2N)[C@H](N)C[C@@H]1O", "difference in excitability", 25.5],
  ["N[C@H](C(=O)O)[C@H](O)c1ccc(O)c(O)c1", "difference in excitability", 0.975],
  ["CCCSc1ccc2[nH]c(NC(=O)OC)nc2c1", "difference in excitability", 17.3],
  ["Clc1ccc(CCC(Cn2ccnc2)Sc2c(Cl)cccc2Cl)cc1 (stereo not given) [Butoconazole (nitrate)]", "difference in excitability", 9.05],
  ["CC=CC(=O)N(CC)c1ccccc1C", "difference in excitability", 0.486],
  ["O=C(O)COCCN1CCN([C@H](c2ccccc2)c2ccc(Cl)cc2)CC1 [(R)-Cetirizine (hydrochloride)]", "difference in excitability", 5.78],
  ["CNCCCC12CCC(c3ccccc31)c1ccccc12 [Maprotiline (hydrochloride)]", "difference in excitability", -2.87],
  ["CN1C(C(=O)Nc2ccccn2)=C(O)c2ccccc2S1(=O)=O", "difference in excitability", 12.1],
  ["COc1ccc(CCN(C)CCCC(C#N)(c2ccc(OC)c(OC)c2)C(C)C)cc1OC (stereo not given) [Verapamil (hydrochloride)]", "difference in excitability", 7.52],
  ["CC(C)(C)NC[C@H](O)COc1cccc2c1CCCC2=O [Levobunolol (hydrochloride)]", "difference in excitability", 5.55],
  ["CO[C@H]1O[C@@H]2O[C@@]3(C)CC[C@H]4[C@H](C)CC[C@@H]([C@H]1C)[C@@]24OO3", "difference in excitability", 17.2],
  ["CN(C)C(=O)N[C@H]1CC[C@H](CCN2CCN(c3cccc(Cl)c3Cl)CC2)CC1 [Cariprazine (hydrochloride)]", "difference in excitability", 11.3],
  ["NS(=O)(=O)c1cc(Cl)c(Cl)c(S(N)(=O)=O)c1 [Dichlorphenamide]", "difference in excitability", 1.47],
  ["CCOc1ccc(Cc2cc([C@@H]3O[C@H](CO)[C@@H](O)[C@H](O)[C@H]3O)ccc2Cl)cc1", "difference in excitability", -2.18],
  ["CC(C)NCC(O)c1ccc(NS(C)(=O)=O)cc1 (stereo not given) [Sotalol (hydrochloride)]", "difference in excitability", -4.39],
  ["CCC(C)n1ncn(-c2ccc(N3CCN(c4ccc(OCC5COC(Cn6cncn6)(c6ccc(Cl)cc6Cl)O5)cc4)CC3)cc2)c1=O (stereo not given)", "difference in excitability", 15.4],
  ["Nc1nc2c(c(=O)[nH]1)N(C=O)C(CNc1ccc(C(=O)NC(CCC(=O)O)C(=O)O)cc1)CN2 (racemic) [DL-Folinic Acid (calcium salt)]", "difference in excitability", -0.743],
  ["CCCCCCCC/C=C\\CCCCCCCC(=O)NCCO [Oleoyl Ethanolamide]", "difference in excitability", 3.95],
  ["CCN(CC)C(=S)SSC(=S)N(CC)CC", "difference in excitability", 12.2],
  ["OC(CNCC(O)C1CCc2cc(F)ccc2O1)C1CCc2cc(F)ccc2O1 (stereo not given) [Nebivolol (hydrochloride)]", "difference in excitability", 9.49],
  ["C[N+](C)(C)CCOC(N)=O [Carbamoylcholine (chloride)]", "difference in excitability", 2.95],
  ["CNCC[C@H](Oc1cccc2ccccc12)c1cccs1 [(S)-Duloxetine (hydrochloride)]", "difference in excitability", 4.76]
]}
